procedure-text: Selectivity ratio of Ki for mouse mu opioid receptor to Ki for guinea pig kappa opioid receptor
Param threshold (3) applies to Ratio Ki; output y when value >= threshold, n when value < threshold.

A selection of reference data follows.
1) O=C(Nc1ccccc1)[C@H]1CCC23CCN(CC4CC4)CC2(Cc2ccc(O)cc23)C1 (some centres not stated)
n
2) O=C(NCCc1ccccc1)[C@@H]1CCC23CCN(CC4CC4)CC2(Cc2ccc(O)cc23)C1 (some centres not stated)
n
3) O=C(NCCc1ccccc1)[C@H]1CCC23CCN(CC4CC4)CC2(Cc2ccc(O)cc23)C1 (some centres not stated)
n
4) CN(C(=O)CCc1ccccc1)[C@H]1CCC23Cc4ccc(O)cc4C2(CCN(CC2CC2)C3)C1 (some centres not stated)
n
5) O=C(Nc1ccccc1)C1=CCC23CCN(CC4CC4)CC2(C1)Cc1ccc(O)cc13 (configuration not stated)
n
6) CN(C(=O)/C=C/c1ccoc1)[C@@H]1CCC23Cc4ccc(O)cc4C2(CCN(CC2CC2)C3)C1 (some centres not stated)
y

Exercise: API: above_or_equal(metric=Ratio Ki, cutoff=3) for item CN(C(=O)/C=C/c1ccoc1)[C@H]1CCC23Cc4ccc(O)cc4C2(CCN(CC2CC2)C3)C1 (some centres not stated)
Key: n

Exercise: API: above_or_equal(metric=Ratio Ki, cutoff=3) for item O=C(Nc1ccccc1)[C@@H]1CCC23CCN(CC4CC4)CC2(Cc2ccc(O)cc23)C1 (some centres not stated)
Key: y

Exercise: API: above_or_equal(metric=Ratio Ki, cutoff=3) for item O=C(NCc1ccccc1)C1=CCC23CCN(CC4CC4)CC2(C1)Cc1ccc(O)cc13 (configuration not stated)
Key: n
